Where these numbers come from: patent US20200055939A1

Assayed System: MICB*005 on HCC1534 cells (human); further: test concentration or dose not given here
Test: cell-based or functional assay
Overview of recorded % Inhibition for various binders
Measured Attribute: % Inhibition (%)

[[record]]
binder = "13A9v4 (antibody, IgG1, V domains shown, humanized variant of 13A9) VH: EVQLVQSGAEVKKPGASVKVSCKASGYAFTNYLIEWVRQAPGQGLEWIGAINPGSGATNYNEKFKDRATLTADKSTNTAYLELSSLRSEDTAVYFCARFLGNYFDNWGQGTLVTVSS VL: DIQMTQSPSSLSASVGDRVTITCRASGNIHSYLAWYQQKPGKSPKLLVYYAETLADGVPSRFSGSGSGTDYTLTISSLQPEDFATYFCQQFWTTPYTFGQGTKVEIK"
value_reported = 63

[[record]]
binder = "13A9 (antibody, V domains shown, mouse variable domains) VH: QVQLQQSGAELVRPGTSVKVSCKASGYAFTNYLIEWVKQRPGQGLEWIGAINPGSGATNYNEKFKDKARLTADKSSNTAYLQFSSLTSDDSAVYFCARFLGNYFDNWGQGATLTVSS VL: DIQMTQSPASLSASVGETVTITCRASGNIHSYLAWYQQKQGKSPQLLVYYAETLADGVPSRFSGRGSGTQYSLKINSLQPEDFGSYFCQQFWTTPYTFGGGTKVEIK"
value_reported = 61

[[record]]
binder = "1D5v23 (antibody, IgG1, V domains shown, humanized variant of 1D5) VH: EIQLVQSGAEVKKPGASVKVSCKASGYAFTSQNIYWVRQAPGQGLEWIGYIEPYNVVPMYNPKFKGRATLTVDTSTSTAYLELSSLRSEDTAVYYCARSGSSNFDYWGQGTLVTVSS VL: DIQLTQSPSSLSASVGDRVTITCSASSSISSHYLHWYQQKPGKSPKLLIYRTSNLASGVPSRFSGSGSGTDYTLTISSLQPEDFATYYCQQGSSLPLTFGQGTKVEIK"
value_reported = 38

[[record]]
binder = "6E1 (m IgG2a, CHO) (antibody, V domains shown) VH: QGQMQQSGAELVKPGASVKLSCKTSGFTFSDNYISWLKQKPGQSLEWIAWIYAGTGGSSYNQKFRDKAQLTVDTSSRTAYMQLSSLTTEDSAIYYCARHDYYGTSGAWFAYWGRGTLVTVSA VL: DVLMTQTPLSLPVSLGDQASISCRSSQHIVHSNENTYLEWYLQKPGQSPKLLIYKVSNRFSGVPDRFSGSGSGTDFTLKISRVEAEDLGVYYCFQGSHVPWTFGGGTKVEIK"
value_reported = 47

[[record]]
binder = "1D5v4 (antibody, IgG1, V domains shown, humanized variant of 1D5) VH: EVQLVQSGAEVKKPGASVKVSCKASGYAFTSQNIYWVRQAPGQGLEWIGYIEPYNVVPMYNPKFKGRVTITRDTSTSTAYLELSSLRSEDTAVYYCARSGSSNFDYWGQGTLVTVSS VL: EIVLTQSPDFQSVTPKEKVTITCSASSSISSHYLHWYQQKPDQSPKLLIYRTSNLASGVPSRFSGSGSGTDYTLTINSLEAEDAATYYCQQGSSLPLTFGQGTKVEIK"
value_reported = 34

[[record]]
binder = "15F11 (m IgG2a, CHO) (antibody, V domains shown) VH: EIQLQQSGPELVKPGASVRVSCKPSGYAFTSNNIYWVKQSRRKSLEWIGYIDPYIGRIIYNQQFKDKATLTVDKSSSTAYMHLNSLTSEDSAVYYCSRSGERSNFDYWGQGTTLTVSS VL: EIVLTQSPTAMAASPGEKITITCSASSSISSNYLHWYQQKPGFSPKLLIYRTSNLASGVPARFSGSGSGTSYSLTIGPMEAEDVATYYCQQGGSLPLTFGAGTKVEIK"
value_reported = 57

[[record]]
binder = "13A9v5 (antibody, IgG1, V domains shown, humanized variant of 13A9) VH: EVQLVQSGAEVKKPGSSVKVSCKASGYAFTNYLIEWVRQAPGQGLEWIGAINPGSGATNYNEKFKDRATLTADKSTNTAYMELSSLRSEDTAVYFCARFLGNYFDNWGQGTLVTVSS VL: DIQMTQSPSSLSASVGDRVTITCRASGNIHSYLAWYQQKPGKAPKLLIYYAETLADGVPSRFSGSGSGTDFTLTISSLQPEDFATYYCQQFWTTPYTFGQGTKVEIK"
value_reported = 63

[[record]]
binder = "1D5v7 (antibody, IgG1, V domains shown, humanized variant of 1D5) VH: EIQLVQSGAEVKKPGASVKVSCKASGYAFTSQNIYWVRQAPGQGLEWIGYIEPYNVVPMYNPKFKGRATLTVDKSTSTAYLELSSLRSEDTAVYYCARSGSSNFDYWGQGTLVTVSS VL: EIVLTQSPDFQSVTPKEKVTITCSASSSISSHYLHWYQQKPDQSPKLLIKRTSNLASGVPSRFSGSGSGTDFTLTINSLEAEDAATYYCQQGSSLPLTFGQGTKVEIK"
value_reported = 42

[[record]]
binder = "1D5v1 (antibody, IgG1, V domains shown, humanized variant of 1D5; also called lD5v1) VH: EIQLVQSGAEVKKPGASVKVSCKASGYAFTSQNIYWVRQAPGQGLEWIGYIEPYNVVPMYNPKFKGRATLTVDKSTSTAYMELRSLRSDDTAVYYCARSGSSNFDYWGQGTLVTVSS VL: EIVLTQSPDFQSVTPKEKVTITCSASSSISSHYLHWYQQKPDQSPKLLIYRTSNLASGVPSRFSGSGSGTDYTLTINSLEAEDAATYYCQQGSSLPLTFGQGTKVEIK"
value_reported = 41

[[record]]
binder = "1D5v20 (antibody, IgG1, V domains shown, humanized variant of 1D5) VH: EIQLVQSGAEVKKPGASVKVSCKASGYAFTSQNIYWVRQAPGQGLEWIGYIEPYNVVPMYNPKFKGRVTLTVDKSTSTAYLELSSLRSEDTAVYYCARSGSSNFDYWGQGTLVTVSS VL: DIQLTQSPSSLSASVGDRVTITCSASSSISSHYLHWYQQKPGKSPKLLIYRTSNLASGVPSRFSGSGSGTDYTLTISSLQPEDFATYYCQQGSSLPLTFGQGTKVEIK"
value_reported = 39

